experiment: qHTS assay for small molecule agonists of the p53 signaling pathway - cell viability (AID 651633); settings: p53RE-bla HCT-116 viability, ATP luminescence, 16 h; series mostly up to 83.3 µM; note: nearly all actives have a fitted effect of over 30% in size
Inconclusive results are not listed. Activity calls are given as the source filed them. Calls come from the whole dose curve.
Would you mind answering with one of these outcomes? active, inactive

Worked cases, answers included:
CC(C)(O)CCc1ccccc1; inactive
CC1CCCO1 (centres undefined); inactive
COc1ccc(C(=O)NCc2ccc(OCCN(C)C)cc2)cc1OC; inactive
O=C(O)c1ccc(O)cc1O; inactive
C/C(C=O)=C\c1ccccc1; inactive

stdin: Hi, do you know how Nc1nc2ccc(OC(F)(F)F)cc2s1 came out in this test?
stdout: inactive

stdin: Hi, do you know how O=CNNC=O came out in this test?
stdout: inactive

stdin: Hi, do you know how O=C1[C@@H]2[C@H]3CC[C@H](C3)[C@@H]2C(=O)N1CCCCN1CCN(c2ncccn2)CC1 came out in this test?
stdout: inactive

stdin: Hi, do you know how CC(=O)Oc1cccc(O)c1 came out in this test?
stdout: inactive

stdin: Hi, do you know how CCCCCc1ccco1 came out in this test?
stdout: active

stdin: Hi, do you know how NC(=O)c1ccccc1[N+](=O)[O-] came out in this test?
stdout: inactive

stdin: Hi, do you know how CCCC(=O)OC(=O)CCC came out in this test?
stdout: inactive

stdin: Hi, do you know how COc1cc(C(C)=O)ccc1OCCCN1CCC(c2noc3cc(F)ccc23)CC1 came out in this test?
stdout: inactive

stdin: Hi, do you know how CCOC(=O)c1ccc(NC(=O)CN2CCCCC2)cc1 came out in this test?
stdout: inactive

----------
biological target: Progesterone receptor (Homo sapiens); test: qHTS assay to identify small molecule agonists of the progesterone receptor (PR) signaling pathway (AID 1346784); conditions: PR-UAS-bla HEK293T, beta-lactamase FRET ratio, 16 h; series mostly up to 92.4 µM; note: nearly all actives have a fitted effect of over 30% in size
Inconclusive results are not listed. Activity calls are given as the source filed them. Calls follow the shape of the full dose curve.
Would you mind answering with one of these outcomes? active, inactive

Worked cases, answers included:
CCN(Cc1cccc(S(=O)(=O)O)c1)c1ccc(C(=C2C=CC(=[N+](CC)Cc3cccc(S(=O)(=O)O)c3)C=C2)c2ccccc2S(=O)(=O)[O-])cc1; inactive
Cc1cccc2sc(N)nc12; inactive
c1ccc(CNc2ncnc3c2ncn3C2CCCCO2)cc1 (centres undefined); inactive
OCC(CO)n1cnc(-c2ccc(F)cc2)c1-c1ccnc(Oc2ccccc2)n1; inactive
Cc1ccc2c(c1)CCCN2; inactive

stdin: Hi, do you know how CC(=O)OCC(C)C came out in this test?
stdout: inactive

stdin: Hi, do you know how Cc1ccc(Nc2c(F)cccc2Cl)c(CC(=O)O)c1 came out in this test?
stdout: inactive

stdin: Hi, do you know how COc1ccc(C2C(=O)c3ccccc3C2=O)cc1 came out in this test?
stdout: inactive

stdin: Hi, do you know how O=C(O)c1ccc(O)cc1O came out in this test?
stdout: inactive

stdin: Hi, do you know how CC(=O)C(C)=O came out in this test?
stdout: inactive

stdin: Hi, do you know how O=C(O)CO came out in this test?
stdout: inactive

stdin: Hi, do you know how C=CCOC(=O)COCCC(C)C came out in this test?
stdout: inactive

stdin: Hi, do you know how CC(C)COC(=O)COc1cc(Cl)c(Cl)cc1Cl came out in this test?
stdout: inactive

stdin: Hi, do you know how CCCCCCCCCCCCCC(=O)OCC(O)CO (centres undefined) came out in this test?
stdout: inactive

----------
assay: qHTS assay for small molecules that induce genotoxicity in human embryonic kidney cells expressing luciferase-tagged ATAD5 - cell viability (AID 651634); conditions: HEK293T ATAD5-luc cells viability, CellTiter-Fluor, 15.5 h; series mostly up to 83.3 µM; note: nearly all actives have a fitted effect of over 25% in size
Records with an inconclusive call do not appear. The source made the active and inactive calls. The call rests on the fitted dose curve.
Would you mind answering with one of these outcomes? label 1 = active, label 0 = inactive

COc1cc(NCc2ccc3nc(N)nc(N)c3c2C)cc(OC)c1OC; label 0

stdin: Hi, do you know how O=C(O)CCS came out in this test?
stdout: label 0

stdin: Hi, do you know how Cc1cc([N+](=O)[O-])ccc1N came out in this test?
stdout: label 1

stdin: Hi, do you know how CCCCCc1ccco1 came out in this test?
stdout: label 0

stdin: Hi, do you know how Nc1ccc(F)cc1 came out in this test?
stdout: label 0

----------
assay: qHTS assay to identify small molecule antagonists of the glucocorticoid receptor (GR) signaling pathway - cell viability counter screen (AID 720693); settings: GR-bla HeLa viability, CellTiter-Glo luminescence, 18 h, with 5 nM dexamethasone present; series mostly up to 58.5 µM; note: nearly all actives have a fitted effect of over 55% in size
Inconclusive results are not listed. Calls of active or inactive are those of the source. Calls come from the whole dose curve; as a rule, active = well fitted cell-killing curve with a large enough effect in the repeat runs; inconclusive = weak or mixed curves, or effect the other way; inactive = no such curve, though single readings can be large or run the other way.
Would you mind answering with one of these outcomes? active, inactive

Worked cases, answers included:
O=C(c1ccccc1)c1ccc(O)cc1; inactive
CNC1CCCN(c2c(F)cc3c(=O)c(C(=O)O)cn(C4CC4)c3c2OC)C1 (stereo not drawn); inactive
CCCCCC; inactive
CCCCCCCCCCCCCCCC(=O)OCC; inactive
CC(O)Cn1cnc2c1c(=O)n(C)c(=O)n2C (stereo not drawn); inactive
CC(C)COC(=O)COc1cc(Cl)c(Cl)cc1Cl; inactive
CCN(CC)c1ccc(C(=C2C=CC(=[N+](CC)CC)C=C2)c2ccc(S(=O)(=O)O)cc2S(=O)(=O)[O-])cc1; active
CC1CCCC(=O)C1=O (stereo not drawn); inactive
O=C(O)CN1C(=O)c2cccc3cccc(c23)C1=O; inactive
ClC1=C(Cl)C1(Cl)Cl; inactive

stdin: Hi, do you know how CCCCCCC(O)CCOC(C)=O (stereo not drawn) came out in this test?
stdout: inactive

stdin: Hi, do you know how CCCCCCCC(=O)Oc1c(Br)cc(C#N)cc1Br came out in this test?
stdout: inactive

stdin: Hi, do you know how C=CC(=O)O came out in this test?
stdout: inactive

stdin: Hi, do you know how CC(=O)OC(C)C[N+](C)(C)C (stereo not drawn) came out in this test?
stdout: inactive

stdin: Hi, do you know how CN=C(N)NC(=O)Nc1c(C)cccc1C came out in this test?
stdout: inactive

stdin: Hi, do you know how O=C(O)c1cc(Cl)cc(Cl)c1O came out in this test?
stdout: inactive

stdin: Hi, do you know how O=C(O)c1ccc(O)cc1O came out in this test?
stdout: inactive

stdin: Hi, do you know how CC1=C2[C@@H]([C@H](C)CC[C@H]2/C=C(\C)C(=O)O)[C@H](O)C1 came out in this test?
stdout: inactive

stdin: Hi, do you know how O=C(O)c1cccc(Oc2ccccc2)c1 came out in this test?
stdout: inactive

----------
biological target: Nuclear receptor subfamily 1 group I member 2 (Homo sapiens) (UniProt O75469); assay: Human pregnane X receptor (PXR) small molecule agonists, qHTS assay (AID 1346982); conditions: PXR-Luc HepG2, CYP3A4 luciferase reporter, 24 h; series mostly up to 92.4 µM; note: nearly all actives have a fitted effect of over 35% in size
Sequence (O75469 whole entry, looked up): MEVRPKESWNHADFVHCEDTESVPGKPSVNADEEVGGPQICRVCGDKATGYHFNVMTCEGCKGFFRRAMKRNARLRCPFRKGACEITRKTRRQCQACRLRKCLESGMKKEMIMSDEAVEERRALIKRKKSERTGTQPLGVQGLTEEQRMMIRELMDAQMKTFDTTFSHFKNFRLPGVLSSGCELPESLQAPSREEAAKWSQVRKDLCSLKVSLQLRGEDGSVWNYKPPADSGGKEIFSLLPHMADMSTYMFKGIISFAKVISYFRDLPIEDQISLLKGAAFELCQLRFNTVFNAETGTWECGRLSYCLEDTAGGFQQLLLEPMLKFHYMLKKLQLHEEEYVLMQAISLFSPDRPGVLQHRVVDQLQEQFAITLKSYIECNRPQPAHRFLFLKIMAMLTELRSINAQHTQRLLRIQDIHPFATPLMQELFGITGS
Results filed as inconclusive are left out. The source made the active and inactive calls. The call rests on the fitted dose curve; in most records, active means well fitted activation curve with a large enough effect in the repeat runs; inconclusive means weak or mixed curves; inactive means no such curve, though single readings can be large or run the other way.
Would you mind answering with one of these outcomes? yes (active), no (inactive)

Oc1cccc2[nH]ccc12; no
Nc1ccc(NC(=O)c2ccc(N)cc2)cc1; no
O=C(/C=C/c1ccc([N+](=O)[O-])cc1)c1ccccc1; yes

Shifting focus to the molecule that follows.
stdin: Hi, do you know how CC(=O)OCCC1CCCCC1 came out in this test?
stdout: no

----------
assay: qHTS assay to identify small molecule antagonists of the sonic hedgehog signaling (Shh) pathway (AID 1259369); settings: NIH/3T3 Gli1-Luc reporter, Shh antagonist, luminescence 24 h; series mostly up to 92.4 µM; note: nearly all actives have a fitted effect of over 45% in size
Records with an inconclusive call do not appear. Calls of active or inactive are those of the source. Calls follow the shape of the full dose curve.
Would you mind answering with one of these outcomes? y (active), n (inactive)

Worked cases, answers included:
O=C(c1ccccc1)C1CCC1; n
Oc1cccc2[nH]ccc12; n
CCCC(=O)OC(=O)CCC; n
CCCCCCCCCCCCCCCCCC(=O)OCC(CC)CCCC (stereo not given); n
Cc1ccccc1S(N)(=O)=O; n
Cc1ccc(Cl)cc1N; n

stdin: Hi, do you know how CCN(CC)C(=O)N1CCN(C)CC1 came out in this test?
stdout: n

stdin: Hi, do you know how c1ccc(CNc2ncnc3c2ncn3C2CCCCO2)cc1 (stereo not given) came out in this test?
stdout: n

stdin: Hi, do you know how CCNc1nc(N)nc(Cl)n1 came out in this test?
stdout: n

stdin: Hi, do you know how C=Cc1ccc(OC(C)=O)cc1 came out in this test?
stdout: n

stdin: Hi, do you know how C=CC(=O)O came out in this test?
stdout: n

----------
experiment: qHTS assay to identify small molecule antagonists of the estrogen related receptor signaling pathway with the pleiotropic PPARgamma coactivator (PGC) from Tox21 10K library (AID 1224841); conditions: PGC/ERR reporter cell line, ONE-Glo luciferase, 18 h; series mostly up to 92.4 µM; note: actives are mostly falling curves and most rising ones were filed inactive; nearly all actives have a fitted effect of over 50% in size
Results filed as inconclusive are left out. Calls of active or inactive are those of the source. How the calls were made is not given here.
Would you mind answering with one of these outcomes? active, inactive

CCN(Cc1cccc(S(=O)(=O)O)c1)c1ccc(C(=C2C=CC(=[N+](CC)Cc3cccc(S(=O)(=O)O)c3)C=C2)c2ccccc2S(=O)(=O)[O-])cc1; active
Cc1ccc2c(c1[N+](=O)[O-])C(=O)c1ccccc1C2=O; inactive
CC(=O)Oc1cccc(O)c1; inactive

stdin: Hi, do you know how CC(=O)OCCC(C)CC(C)(C)C (stereo unspecified) came out in this test?
stdout: inactive

stdin: Hi, do you know how COc1cc(NCc2ccc3nc(N)nc(N)c3c2C)cc(OC)c1OC came out in this test?
stdout: active

stdin: Hi, do you know how CC1CCC(C(C)CS)CC1S (stereo unspecified) came out in this test?
stdout: inactive

stdin: Hi, do you know how O=NN(CCCl)C(=O)NCCCl came out in this test?
stdout: inactive

stdin: Hi, do you know how CC(=O)NNC(C)=O came out in this test?
stdout: inactive

stdin: Hi, do you know how CC(C)c1ccc(C#N)cc1 came out in this test?
stdout: inactive

stdin: Hi, do you know how COC(C)(C)OC came out in this test?
stdout: inactive

stdin: Hi, do you know how CCC(CO)(CO)[N+](=O)[O-] came out in this test?
stdout: inactive
